Readings of aptazyme ON/OFF ratio for the listed variants
B1: Pistol ribozyme (parent)
chain: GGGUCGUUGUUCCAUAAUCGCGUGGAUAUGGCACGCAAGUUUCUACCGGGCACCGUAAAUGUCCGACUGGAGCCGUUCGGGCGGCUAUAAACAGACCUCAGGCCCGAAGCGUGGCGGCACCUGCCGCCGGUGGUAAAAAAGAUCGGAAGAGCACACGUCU

Variants of: B1
Test: aptazyme ON/OFF ratio, guanine; higher = stronger switching; co-transcriptional cleavage with and without guanine
Reply with the value as a number alone.

Observe how each entry below is paired with its result.
>>> print(df.to_string())
            variantdescription  endpointvalue
0       U7G G9C U11G C12G C13A           1.17
1           G9U U10G U11A C13G           1.14
2  U7A U8C U10C U11A C12U C13G           1.19
3       U7G U8C U10A U11G C13U           1.23
4  U8C G9C U10C U11C C12A C13A           1.02

*Q* Recorded aptazyme ON/OFF ratio of U7A U8G U10C U11A C12U C13A , please.
*A* 1.35

*Q* Entry to check: U7G G9C U10G C12G
*A* 1.51

*Q* Entry to check: U7C U10A C13G
*A* 1.05

*Q* Entry to check: U8A U10C U11G C13A
*A* 1.21

*Q* Entry to check: U7C U8C G9C U10A U11A C12G
*A* 1.08

*Q* Entry to check: U8C U11G C12G
*A* 1.23

*Q* Entry to check: U7G U8C G9U U10A U11C C12G C13A
*A* 1.14

*Q* Entry to check: G9U U11C C12G C13A
*A* 1.3

*Q* Entry to check: U7G U8A U11C C12U
*A* 1.41

Taken from the RNAGym collection of RNA variant scans (doi:10.1021/acssynbio.7b00057).
